- System: THRa:RXRa (NR concentration 90 nM, RXRa partner concentration 90 nM)
- method-summary: PBM binding z-score (relative to random genomic background probes); higher = stronger binding; sequences stand for … in GC…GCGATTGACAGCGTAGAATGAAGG
Decide by PBM binding z-score: equal to or exceeding 1 means YES, less means NO.

Problem: Textbook exercise: given the entry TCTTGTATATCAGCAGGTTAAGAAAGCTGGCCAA , state whether its PBM binding z-score is greater than or equal to 1.
Result: NO

Problem: Textbook exercise: given the entry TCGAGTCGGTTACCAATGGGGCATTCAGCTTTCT , state whether its PBM binding z-score is greater than or equal to 1.
Result: NO

Problem: Textbook exercise: given the entry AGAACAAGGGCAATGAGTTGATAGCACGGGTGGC , state whether its PBM binding z-score is greater than or equal to 1.
Result: NO

Problem: Textbook exercise: given the entry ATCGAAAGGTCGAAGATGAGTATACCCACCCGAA , state whether its PBM binding z-score is greater than or equal to 1.
Result: YES

Problem: Textbook exercise: given the entry ATATGTAGGTTACATCAGGGTCATTCAGGCTATG , state whether its PBM binding z-score is greater than or equal to 1.
Result: YES

Problem: Textbook exercise: given the entry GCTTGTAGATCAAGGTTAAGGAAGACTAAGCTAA , state whether its PBM binding z-score is greater than or equal to 1.
Result: YES

Problem: Textbook exercise: given the entry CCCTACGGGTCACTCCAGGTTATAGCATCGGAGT , state whether its PBM binding z-score is greater than or equal to 1.
Result: YES

Problem: Textbook exercise: given the entry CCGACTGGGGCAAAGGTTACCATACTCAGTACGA , state whether its PBM binding z-score is greater than or equal to 1.
Result: YES

Problem: Textbook exercise: given the entry CCGACTGGGGCAAAGGTTACCAAACTCAGTACGA , state whether its PBM binding z-score is greater than or equal to 1.
Result: YES

Problem: Textbook exercise: given the entry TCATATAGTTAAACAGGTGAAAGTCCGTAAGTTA , state whether its PBM binding z-score is greater than or equal to 1.
Result: NO

Problem: Textbook exercise: given the entry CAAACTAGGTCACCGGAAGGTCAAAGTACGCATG , state whether its PBM binding z-score is greater than or equal to 1.
Result: YES

Problem: Textbook exercise: given the entry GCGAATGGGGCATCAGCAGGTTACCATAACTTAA , state whether its PBM binding z-score is greater than or equal to 1.
Result: NO

Problem: Textbook exercise: given the entry CGTCCAAGGTCAAAGGTCAGTGTAGAGATGACGG , state whether its PBM binding z-score is greater than or equal to 1.
Result: YES

Problem: Textbook exercise: given the entry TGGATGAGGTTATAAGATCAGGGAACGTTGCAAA , state whether its PBM binding z-score is greater than or equal to 1.
Result: YES

Problem: Textbook exercise: given the entry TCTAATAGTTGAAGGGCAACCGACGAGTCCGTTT , state whether its PBM binding z-score is greater than or equal to 1.
Result: NO

Problem: Textbook exercise: given the entry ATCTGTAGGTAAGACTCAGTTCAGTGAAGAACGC , state whether its PBM binding z-score is greater than or equal to 1.
Result: NO

Problem: Textbook exercise: given the entry AGAACGAGGGCACGCTGAGTGGATAGCAGAGTAG , state whether its PBM binding z-score is greater than or equal to 1.
Result: YES

Problem: Textbook exercise: given the entry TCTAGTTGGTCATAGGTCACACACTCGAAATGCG , state whether its PBM binding z-score is greater than or equal to 1.
Result: YES

Problem: Textbook exercise: given the entry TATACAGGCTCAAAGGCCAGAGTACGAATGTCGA , state whether its PBM binding z-score is greater than or equal to 1.
Result: NO

Problem: Textbook exercise: given the entry CCAGACAGGTGAGAGGTAACTCAGTCTGGTACGC , state whether its PBM binding z-score is greater than or equal to 1.
Result: NO

Problem: Textbook exercise: given the entry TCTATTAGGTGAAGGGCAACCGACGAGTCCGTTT , state whether its PBM binding z-score is greater than or equal to 1.
Result: YES

Problem: Textbook exercise: given the entry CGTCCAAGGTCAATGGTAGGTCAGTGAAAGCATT , state whether its PBM binding z-score is greater than or equal to 1.
Result: YES

Problem: Textbook exercise: given the entry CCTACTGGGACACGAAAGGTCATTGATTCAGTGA , state whether its PBM binding z-score is greater than or equal to 1.
Result: YES

Problem: Textbook exercise: given the entry TCATATAGGTAAGACAGGTGAAAGTCGGCATCTA , state whether its PBM binding z-score is greater than or equal to 1.
Result: NO

Problem: Textbook exercise: given the entry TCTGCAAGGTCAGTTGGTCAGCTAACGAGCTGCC , state whether its PBM binding z-score is greater than or equal to 1.
Result: YES

Problem: Textbook exercise: given the entry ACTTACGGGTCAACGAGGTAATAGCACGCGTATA , state whether its PBM binding z-score is greater than or equal to 1.
Result: YES

Problem: Textbook exercise: given the entry CAAACTAGGTCACGGGAAGGTCAAAGTCCGCATG , state whether its PBM binding z-score is greater than or equal to 1.
Result: YES

Problem: Textbook exercise: given the entry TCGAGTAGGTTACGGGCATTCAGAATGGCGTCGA , state whether its PBM binding z-score is greater than or equal to 1.
Result: NO

Problem: Textbook exercise: given the entry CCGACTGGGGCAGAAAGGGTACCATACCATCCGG , state whether its PBM binding z-score is greater than or equal to 1.
Result: NO

Problem: Textbook exercise: given the entry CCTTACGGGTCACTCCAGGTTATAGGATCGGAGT , state whether its PBM binding z-score is greater than or equal to 1.
Result: YES

Problem: Textbook exercise: given the entry TCATATTGGTAAAAGGTGAAAGTCGGTGTGGTAA , state whether its PBM binding z-score is greater than or equal to 1.
Result: YES

Problem: Textbook exercise: given the entry GATACCGGGTCAGCTAGAGGCCAGAGTATGGAAA , state whether its PBM binding z-score is greater than or equal to 1.
Result: YES

Problem: Textbook exercise: given the entry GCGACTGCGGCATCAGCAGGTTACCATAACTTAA , state whether its PBM binding z-score is greater than or equal to 1.
Result: NO

Problem: Textbook exercise: given the entry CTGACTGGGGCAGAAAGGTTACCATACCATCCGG , state whether its PBM binding z-score is greater than or equal to 1.
Result: YES

Problem: Textbook exercise: given the entry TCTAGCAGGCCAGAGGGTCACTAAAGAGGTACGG , state whether its PBM binding z-score is greater than or equal to 1.
Result: YES

Problem: Textbook exercise: given the entry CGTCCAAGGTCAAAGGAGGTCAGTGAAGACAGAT , state whether its PBM binding z-score is greater than or equal to 1.
Result: YES

Problem: Textbook exercise: given the entry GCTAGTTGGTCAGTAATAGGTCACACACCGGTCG , state whether its PBM binding z-score is greater than or equal to 1.
Result: YES

Problem: Textbook exercise: given the entry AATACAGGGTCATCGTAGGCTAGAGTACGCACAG , state whether its PBM binding z-score is greater than or equal to 1.
Result: YES
